Test system: ZEAMX (Corn, Field)
protocolDescription: Postemergence herbicidal evaluation
Type: in vivo, Zea mays
measurementContext: postemergence, rate 0.0315 kg/ha
measurementKind: ZEAMX herbicidal rating
No unit in the answer, please; the number alone is enough.

Worked set:
Inquiry: Item under review: CN1C(=O)C(CC(=O)OCCF)SC1=Nc1cc(-n2c(=O)cc(C(F)(F)F)n(C)c2=O)c(F)cc1Cl (centres unmarked) . Reported ZEAMX herbicidal rating?
Reply text: 7.5

Inquiry: Item under review: `C[C@H](C(=O)O)N1C(=O)CSC1=Nc1cc(-n2c(=O)cc(C(F)(F)F)n(C)c2=O)c(F)cc1Cl` . Reported ZEAMX herbicidal rating?
Reply text: 5.5

Inquiry: Item under review: `CCOC(=O)CN1C(=O)C(=Cc2ccccc2)SC1=Nc1cc(-n2c(=O)cc(C(F)(F)F)n(C)c2=O)c(F)cc1Cl` . Reported ZEAMX herbicidal rating?
Reply text: 4.5

Inquiry: Item under review: CCOC(=O)CN1C(=O)C(CC(=O)Nc2ccccc2)SC1=Nc1cc(-n2c(=O)cc(C(F)(F)F)n(C)c2=O)c(F)cc1Cl (centres unmarked) . Reported ZEAMX herbicidal rating?
Reply text: 5.0

Continuing:
Inquiry: Item under review: CN1C(=O)C(CC(=O)Nc2ccccc2)SC1=Nc1cc(-n2c(=O)cc(C(F)(F)F)n(C)c2=O)c(F)cc1Cl (centres unmarked) . Reported ZEAMX herbicidal rating?
Reply text: 4.0

Inquiry: Item under review: C#CCOC(=O)CC1SC(=Nc2cc(-n3c(=O)cc(C(F)(F)F)n(C)c3=O)c(F)cc2Cl)N(CC=C)C1=O (centres unmarked) . Reported ZEAMX herbicidal rating?
Reply text: 8.0

Inquiry: Item under review: `CN(C)N1C(=O)CSC1=Nc1cc(-n2c(=O)cc(C(F)(F)F)n(C)c2=O)c(F)cc1Cl` . Reported ZEAMX herbicidal rating?
Reply text: 3.5

Inquiry: Item under review: `CCOC(=O)CN1C(=O)CO/C1=N/c1cc(-n2c(=O)cc(C(F)(F)F)n(C)c2=O)c(F)cc1Cl` . Reported ZEAMX herbicidal rating?
Reply text: 7.5

====

# Lookup of reported Herbicidal rating CYPSE keyed by entry
System: CYPSE (Flatsedge)
protocolDescription: Postemergence weed control under flooded paddy conditions
Format: in vivo, Cyperus serotinus
measurementContext: Rate 0.1250 kg/ha, postemergence weeds, rated 3 to 4 weeks after treatment
No unit in the answer, please; the number alone is enough.

Worked set:
Inquiry: Item under review: CC(C)S(=O)(=O)NC(=O)CC1SC(=Nc2cc(-n3c(=O)cc(C(F)(F)F)n(C)c3=O)c(F)cc2Cl)N(C)C1=O (stereo not drawn) [Compound 119] . Reported Herbicidal rating CYPSE?
Reply text: 0.0

Inquiry: Item under review: COC(=O)C(Cc1ccc(Cl)cc1)N1C(=O)CSC1=Nc1cc(-n2c(=O)cc(C(F)(F)F)n(C)c2=O)c(F)cc1Cl (racemic) [Compound 77] . Reported Herbicidal rating CYPSE?
Reply text: 0.0

Continuing:
Inquiry: Item under review: C=CCOC(=O)CC1SC(=Nc2cc(-n3c(=O)cc(C(F)(F)F)n(C)c3=O)c(F)cc2Cl)N(CC=C)C1=O (stereo not drawn) [Compound 65] . Reported Herbicidal rating CYPSE?
Reply text: 0.0

====

# Lookup of reported SETVI preemergence herbicidal rating keyed by entry
System: SETVI (Foxtail, Green)
protocolDescription: Preemergence herbicidal evaluation
Assay type: in vivo, Setaria viridis
measurementContext: rate 0.1250 kg/ha; rated 4-5 weeks after treatment

Worked set:
Inquiry: Item under review: `CCOC(=O)CN1C(=O)CSC1=Nc1cc(-n2c(=O)cc(C(F)(F)F)n(C)c2=O)c(F)cc1Cl` . Reported SETVI preemergence herbicidal rating?
Reply text: 9.0

Inquiry: Item under review: `CCOC(=O)CN1C(=O)CO/C1=N/c1cc(-n2c(=O)cc(C(F)(F)F)n(C)c2=O)c(F)cc1Cl` . Reported SETVI preemergence herbicidal rating?
Reply text: 9.0

Inquiry: Item under review: `CCOC(=O)/C=C1/S/C(=N/c2cc(-n3c(=O)cc(C(F)(F)F)n(C)c3=O)c(F)cc2Cl)N(CC(=O)OCC)C1=O` . Reported SETVI preemergence herbicidal rating?
Reply text: 6.5

Inquiry: Item under review: `C=CCN1C(=O)CSC1=Nc1cc(N2C(=O)C3=C(CCCC3)C2=O)c(F)cc1Cl` . Reported SETVI preemergence herbicidal rating?
Reply text: 6.0

Inquiry: Item under review: `CN1C(=O)CS/C1=N/c1cc(-n2c(=O)cc(C(F)(F)F)n(C)c2=O)c(F)cc1Cl` . Reported SETVI preemergence herbicidal rating?
Reply text: 9.0

# context switch: different compound, same SETVI preemergence herbicidal rating
Inquiry: Item under review: CCOC(=O)CN1C(=O)C(CC(=O)O)S/C1=N/c1cc(-n2c(=O)cc(C(F)(F)F)n(C)c2=O)c(F)cc1Cl (stereo not drawn) . Reported SETVI preemergence herbicidal rating?
Reply text: 7.5

====

System: CYPSE (Flatsedge)
protocolDescription: Preemergence weed control under flooded paddy conditions
Type: in vivo, Cyperus serotinus
measurementContext: 0.1250 kg/ha, rated 3-4 weeks after treatment
# Lookup of reported CYPSE herbicidal effect rating keyed by entry
No unit in the answer, please; the number alone is enough.

Inquiry: Item under review: CCOC(=O)CN1C(=O)C(CC(=O)Nc2ccccc2)SC1=Nc1cc(-n2c(=O)cc(C(F)(F)F)n(C)c2=O)c(F)cc1Cl (stereo not shown) . Reported CYPSE herbicidal effect rating?
Reply text: 0.0

Inquiry: Item under review: CC(C)OC(=O)CC1SC(=Nc2cc(-n3c(=O)cc(C(F)(F)F)n(C)c3=O)c(F)cc2Cl)N(C)C1=O (stereo not shown) . Reported CYPSE herbicidal effect rating?
Reply text: 4.0

====

System: SAGPY (Arrowhead (Pygmaea))
protocolDescription: Preemergence weed control under flooded paddy conditions
Assay type: in vivo, Sagittaria pygmaea
measurementContext: 0.1250 kg/ha, rated 3-4 weeks after treatment
measurementKind: herbicidal effect rating, SAGPY
No unit in the answer, please; the number alone is enough.

Inquiry: Item under review: Cc1cc(C)cc(CN2C(=O)CSC2=Nc2cc(-n3c(=O)cc(C(F)(F)F)n(C)c3=O)c(F)cc2Cl)c1 [Compound 146] . Reported herbicidal effect rating, SAGPY?
Reply text: 3.0

Inquiry: Item under review: CC(C)COC(=O)CN1C(=O)CSC1=Nc1cc(-n2c(=O)cc(C(F)(F)F)n(C)c2=O)c(F)cc1Cl [Compound 121] . Reported herbicidal effect rating, SAGPY?
Reply text: 4.0

Inquiry: Item under review: Cn1c(C(F)(F)F)cc(=O)n(-c2cc(N=C3SCC(=O)N3Cc3cccc(Cl)c3)c(Cl)cc2F)c1=O [Compound 136] . Reported herbicidal effect rating, SAGPY?
Reply text: 3.0

Inquiry: Item under review: Cn1c(C(F)(F)F)cc(=O)n(-c2cc(N=C3SCC(=O)N3C3CCC3)c(Cl)cc2F)c1=O [Compound 168] . Reported herbicidal effect rating, SAGPY?
Reply text: 0.0

Continuing:
Inquiry: Item under review: Cn1c(C(F)(F)F)cc(=O)n(-c2cc(N=C3SCC(=O)N3Cc3cccnc3)c(Cl)cc2F)c1=O [Compound 132] . Reported herbicidal effect rating, SAGPY?
Reply text: 0.0

====

System: ECHORC (Watergrass (Calif.))
protocolDescription: Postemergence weed control under flooded paddy conditions
Format: in vivo, Echinochloa oryzoides
measurementContext: Rate 0.0625 kg/ha, postemergence weeds, rated 3 to 4 weeks after treatment
# Lookup of reported Herbicidal rating ECHORC keyed by entry

Inquiry: Enter reported Herbicidal rating ECHORC observed with ECHORC (Watergrass (Calif.)) for C=CCN1C(=O)C(CC(=O)NC)SC1=Nc1cc(-n2c(=O)cc(C(F)(F)F)n(C)c2=O)c(F)cc1Cl (centres unmarked)
Reply text: 5.0

Inquiry: Enter reported Herbicidal rating ECHORC observed with ECHORC (Watergrass (Calif.)) for CN1C(=O)C(CC(=O)OCCF)SC1=Nc1cc(-n2c(=O)cc(C(F)(F)F)n(C)c2=O)c(F)cc1Cl (centres unmarked)
Reply text: 3.0

Continuing:
Inquiry: Enter reported Herbicidal rating ECHORC observed with ECHORC (Watergrass (Calif.)) for C=CCN1C(=O)C(CC(=O)OC)SC1=Nc1cc(-n2c(=O)cc(C(F)(F)F)n(C)c2=O)c(F)cc1Cl (centres unmarked)
Reply text: 6.0

Inquiry: Enter reported Herbicidal rating ECHORC observed with ECHORC (Watergrass (Calif.)) for CCOC(=O)CN1C(=O)C(CC(=O)NO)S/C1=N/c1cc(-n2c(=O)cc(C(F)(F)F)n(C)c2=O)c(F)cc1Cl (centres unmarked)
Reply text: 0.0

Inquiry: Enter reported Herbicidal rating ECHORC observed with ECHORC (Watergrass (Calif.)) for C#CCOC(=O)CC1SC(=Nc2cc(-n3c(=O)cc(C(F)(F)F)n(C)c3=O)c(F)cc2Cl)N(C)C1=O (centres unmarked)
Reply text: 0.0

====

# Lookup of reported herbicidal effect rating, ECHORC keyed by entry
System: ECHORC (Watergrass (Calif.))
protocolDescription: Preemergence weed control under flooded paddy conditions
Assay type: in vivo, Echinochloa oryzoides
measurementContext: 0.0313 kg/ha, rated 3-4 weeks after treatment
No unit in the answer, please; the number alone is enough.

Worked set:
Inquiry: Item under review: `COCCCN1C(=O)CSC1=Nc1cc(-n2c(=O)cc(C(F)(F)F)n(C)c2=O)c(F)cc1Cl` . Reported herbicidal effect rating, ECHORC?
Reply text: 6.0

Inquiry: Item under review: `Cn1c(C(F)(F)F)cc(=O)n(-c2cc(N=C3SCC(=O)N3Cc3cc(Cl)cc(Cl)c3)c(Cl)cc2F)c1=O` . Reported herbicidal effect rating, ECHORC?
Reply text: 6.0

Inquiry: Item under review: CCOC(=O)CN1C(=O)C(CC(=O)O)SC1=Nc1cc(N2C(=O)CC(C(F)(F)F)CC2=O)c(F)cc1Cl (stereo not shown) . Reported herbicidal effect rating, ECHORC?
Reply text: 9.0

Inquiry: Item under review: `CCN1C(=O)CSC1=Nc1cc(-n2c(=O)cc(C(F)(F)F)n(C)c2=O)c(F)cc1Cl` . Reported herbicidal effect rating, ECHORC?
Reply text: 2.0

Continuing:
Inquiry: Item under review: `Cn1c(C(F)(F)F)cc(=O)n(-c2cc(N=C3SCC(=O)N3Cc3cccnc3)c(Cl)cc2F)c1=O` . Reported herbicidal effect rating, ECHORC?
Reply text: 3.0

Inquiry: Item under review: `CC(C)N1C(=O)CSC1=Nc1cc(-n2c(=O)cc(C(F)(F)F)n(C)c2=O)c(F)cc1Cl` . Reported herbicidal effect rating, ECHORC?
Reply text: 6.0

Inquiry: Item under review: `C=C1SC(=Nc2cc(-n3c(=O)cc(C(F)(F)F)n(C)c3=O)c(F)cc2Cl)N(CC(=O)OCC)C1=O` . Reported herbicidal effect rating, ECHORC?
Reply text: 3.0
